Would you kindly list inhibition for each of these molecules?
- measurement target: Tyrosine-protein phosphatase non-receptor type 1 (Homo sapiens) (UniProt P18031)
- Sequence (P18031 whole entry, the tested form may be a part): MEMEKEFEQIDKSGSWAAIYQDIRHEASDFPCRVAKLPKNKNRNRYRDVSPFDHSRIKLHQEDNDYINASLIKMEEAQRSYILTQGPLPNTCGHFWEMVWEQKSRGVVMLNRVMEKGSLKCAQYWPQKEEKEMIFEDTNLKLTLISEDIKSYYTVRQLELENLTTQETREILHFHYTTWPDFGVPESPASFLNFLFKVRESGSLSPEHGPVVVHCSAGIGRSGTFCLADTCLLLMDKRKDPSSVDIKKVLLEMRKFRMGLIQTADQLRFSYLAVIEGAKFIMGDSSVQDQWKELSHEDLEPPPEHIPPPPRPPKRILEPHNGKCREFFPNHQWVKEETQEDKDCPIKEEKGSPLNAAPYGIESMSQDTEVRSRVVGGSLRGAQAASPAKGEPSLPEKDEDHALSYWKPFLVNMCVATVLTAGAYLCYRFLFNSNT
- test details: Inhibition of recombinant human PTP1B (1 to 321 residues) expressed in Escherichia coli at 10 uM using p-nitrophenyl phosphate as substrate incubated for 30 mins relative to control

* COc1cc2c(c(OC)c1CC=C(C)C)C[C@H](c1ccc(O)c(CC=C(C)C)c1O)CO2 | > 60%
* COc1cc2c(c(O)c1CC=C(C)C)C(=O)C(c1ccc(O)cc1O)CO2 (stereo not drawn) | > 60%

// below: inhibition requested for another molecule
Quick one: inhibition for "CC1(C)C=Cc2cc(/C=C/C(=O)c3ccc(O)cc3O)ccc2O1" ?
> 60%

Data origin: ChEMBL document CHEMBL4610094
